target: JAK3 (Homo sapiens, UniProt P52333); construct: host or cells: Sf9 insect cells (baculovirus); assay: ADP-Glo kinase inhibition assay, JAK3; assay type: biochemical; settings: 1 μM compound; percentage of maximum activity of the DMSO control; mean n = 2; 10 µM ATP; read-out: Residual activity JAK3
Sequence (P52333 whole entry): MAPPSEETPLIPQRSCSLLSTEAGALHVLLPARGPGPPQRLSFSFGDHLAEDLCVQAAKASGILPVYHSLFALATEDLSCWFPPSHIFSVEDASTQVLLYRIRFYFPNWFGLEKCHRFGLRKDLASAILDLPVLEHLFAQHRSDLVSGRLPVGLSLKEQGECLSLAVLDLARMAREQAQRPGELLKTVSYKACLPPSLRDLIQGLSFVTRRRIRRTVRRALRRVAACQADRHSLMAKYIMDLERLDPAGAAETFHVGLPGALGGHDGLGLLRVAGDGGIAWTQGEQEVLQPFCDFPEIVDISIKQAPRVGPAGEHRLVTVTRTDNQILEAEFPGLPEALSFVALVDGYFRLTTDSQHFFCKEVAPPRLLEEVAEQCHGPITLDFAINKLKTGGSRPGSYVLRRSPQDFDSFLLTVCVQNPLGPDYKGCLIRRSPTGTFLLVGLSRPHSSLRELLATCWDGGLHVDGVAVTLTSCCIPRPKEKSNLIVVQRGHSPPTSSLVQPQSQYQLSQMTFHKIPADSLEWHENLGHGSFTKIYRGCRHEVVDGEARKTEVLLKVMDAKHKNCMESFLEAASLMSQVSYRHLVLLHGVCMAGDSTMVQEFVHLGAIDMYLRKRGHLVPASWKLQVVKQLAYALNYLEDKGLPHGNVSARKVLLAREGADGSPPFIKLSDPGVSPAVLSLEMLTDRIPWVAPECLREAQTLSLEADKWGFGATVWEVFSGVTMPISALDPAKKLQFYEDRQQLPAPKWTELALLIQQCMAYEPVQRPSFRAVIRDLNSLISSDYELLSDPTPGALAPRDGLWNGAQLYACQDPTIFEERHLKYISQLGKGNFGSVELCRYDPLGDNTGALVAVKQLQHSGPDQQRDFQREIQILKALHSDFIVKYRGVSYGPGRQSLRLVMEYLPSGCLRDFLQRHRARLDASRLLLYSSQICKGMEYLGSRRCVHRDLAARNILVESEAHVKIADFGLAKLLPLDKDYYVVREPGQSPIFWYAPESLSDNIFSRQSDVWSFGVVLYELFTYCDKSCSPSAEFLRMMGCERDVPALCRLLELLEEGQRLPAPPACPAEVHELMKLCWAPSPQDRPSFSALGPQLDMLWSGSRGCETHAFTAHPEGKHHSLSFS
remaining activity at 1 µM less than 70% is Yes; remaining activity at 1 µM greater than or equal to 70% is No.

{"compound": "COC(=N)c1nc2ccc3c(=O)n(Cc4ccccc4)cnc3c2s1", "subject_of_test": "JAK3 (Homo sapiens, UniProt P52333)", "class_label": "No"}
{"compound": "COC(=N)c1nc2cc3c(Nc4ccc(OC)cc4F)ncnc3cc2s1 [Compound 15a]", "subject_of_test": "JAK3 (Homo sapiens, UniProt P52333)", "class_label": "Yes"}

INPUT: Take the compound `COC(=N)c1nc2cc3ncn(Cc4ccccc4)c(=O)c3cc2s1` and say whether its remaining activity at 1 µM is less than 70%.
OUTPUT: No

INPUT: Consider the compound `COC(=N)c1nc2cc3c(=O)n(Cc4ccccc4)cnc3cc2s1` . Is its remaining activity at 1 µM strictly less than 70%?
OUTPUT: Yes

INPUT: In the record for COC(=N)c1nc2ccc3ncn(Cc4ccccc4)c(=O)c3c2s1 [Compound I, reference compound] , is remaining activity at 1 µM less than 70%?
OUTPUT: Yes

INPUT: Quick check: remaining activity at 1 µM of `COC(=N)c1nc2c(ccc3c(=O)n(Cc4ccccc4)cnc32)s1` under 70%?
OUTPUT: Yes

---

value_type: melting point

Documented melting point of COC(=N)c1nc2cc3ncn(Cc4ccccc4)c(=O)c3cc2s1 [Compound 6b] : 244 to 245 °C

---

experiment: In vitro cytotoxic assay, MCF-7; type: cell-based; settings: human, MCF-7 cells (breast cancer cell line); also: 0.1-25 µM tested
value_type: IC50 at 48 h (µM)
# number only, unit µM dropped from output

Lab note: `COC(=N)c1nc2c(ccc3c(=O)n(Cc4ccccc4)cnc32)s1` gave IC50 at 48 h of 7

In plain terms, COC(=N)c1nc2ccc3ncnc(Nc4ccc(OC)cc4F)c3c2s1 [Compound II, reference compound] has a documented IC50 at 48 h of 5

Lab note: measured IC50 at 48 h of `N#Cc1nc2ccc3c(=O)n(Cc4ccccc4)cnc3c2s1` was 12

Record `N#Cc1nc2c(ccc3c(=O)n(Cc4ccccc4)cnc32)s1` , field IC50 at 48 h: 16

IC50 at 48 h in this record for `N#Cc1nc2cc3c(=O)n(Cc4ccccc4)cnc3cc2s1` : 8

---

biological target: CLK1 (Homo sapiens, UniProt P49759); construct: host or cells: Sf9 insect cells (baculovirus); assay: ADP-Glo kinase inhibition assay, CLK1; assay type: biochemical; details: 10 μM compound; percentage of maximum activity of the DMSO control; mean n = 2; 10 µM ATP; read-out: Residual activity CLK1
Sequence (P49759 whole entry): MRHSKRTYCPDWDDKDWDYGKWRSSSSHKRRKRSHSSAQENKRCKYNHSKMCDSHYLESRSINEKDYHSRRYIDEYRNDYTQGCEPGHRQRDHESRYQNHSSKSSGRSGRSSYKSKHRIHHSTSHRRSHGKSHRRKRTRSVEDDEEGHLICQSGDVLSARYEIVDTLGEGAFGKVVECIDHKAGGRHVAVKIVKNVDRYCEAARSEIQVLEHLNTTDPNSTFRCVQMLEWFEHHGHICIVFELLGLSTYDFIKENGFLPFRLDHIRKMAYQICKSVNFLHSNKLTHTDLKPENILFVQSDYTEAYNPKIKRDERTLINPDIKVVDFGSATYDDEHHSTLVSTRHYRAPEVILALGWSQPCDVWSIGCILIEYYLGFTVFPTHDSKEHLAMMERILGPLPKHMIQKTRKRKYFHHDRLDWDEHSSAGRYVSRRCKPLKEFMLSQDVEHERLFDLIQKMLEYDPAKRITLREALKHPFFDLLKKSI
Examples of compounds with documented remaining activity at 10 µM follow.

{"compound": "COC(=N)c1nc2cc3c(Nc4ccc(OC)cc4F)ncnc3cc2s1 [Compound 15a]", "endpoint_value": "52%"}
{"compound": "COC(=N)c1nc2cc3ncn(Cc4ccccc4)c(=O)c3cc2s1 [Compound 6b]", "endpoint_value": "102%"}
{"compound": "COC(=N)c1nc2cc3c(=O)n(Cc4ccccc4)cnc3cc2s1 [Compound 6a]", "endpoint_value": "96%"}
{"compound": "COC(=N)c1nc2cc3ncnc(Nc4ccc(OC)cc4F)c3cc2s1 [Compound 15b]", "endpoint_value": "105%"}
{"compound": "COC(=N)c1nc2ccc3c(=O)n(Cc4ccccc4)cnc3c2s1 [Compound 6d]", "endpoint_value": "73%"}

COC(=N)c1nc2ccc3ncn(Cc4ccccc4)c(=O)c3c2s1 [Compound I, reference compound] has a reported remaining activity at 10 µM of 27%

The reported remaining activity at 10 µM of the compound COC(=N)c1nc2c(ccc3c(=O)n(Cc4ccccc4)cnc32)s1 [Compound 6c] was 84%

---

molecular target: Haspin (Homo sapiens, UniProt Q8TF76); construct: amino acids 470 to Histone H3 peptide (1-21): (Other) 798, recombinant; host or cells: bacteria; assay: ADP-Glo kinase inhibition assay, Haspin; assay type: biochemical; details: 1 μM compound; percentage of maximum activity of the DMSO control; mean n = 2; 10 µM ATP; read-out: Residual activity Haspin
Sequence (Q8TF76 470-798): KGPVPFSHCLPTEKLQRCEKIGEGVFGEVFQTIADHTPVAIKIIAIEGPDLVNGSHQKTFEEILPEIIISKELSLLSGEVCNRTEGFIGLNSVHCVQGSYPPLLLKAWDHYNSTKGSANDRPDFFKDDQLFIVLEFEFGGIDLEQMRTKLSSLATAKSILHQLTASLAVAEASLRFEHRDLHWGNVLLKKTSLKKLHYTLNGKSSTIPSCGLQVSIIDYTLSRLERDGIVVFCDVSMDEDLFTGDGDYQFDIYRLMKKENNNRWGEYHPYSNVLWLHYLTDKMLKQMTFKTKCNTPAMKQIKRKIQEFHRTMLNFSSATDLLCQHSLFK
We label by threshold. Values of remaining activity at 1 µM strictly beneath 60% are satisfied. Values of 60% and up are not satisfied.

Study these solved cases before continuing.
{"molecule": "COC(=N)c1nc2cc3c(=O)n(Cc4ccccc4)cnc3cc2s1 [Compound 6a]", "class_label": "not satisfied"}
{"molecule": "COC(=N)c1nc2cc3ncnc(Nc4ccc(OC)cc4F)c3cc2s1 [Compound 15b]", "class_label": "not satisfied"}

INPUT: Is the reported remaining activity at 1 µM for COC(=N)c1nc2cc3c(Nc4ccc(OC)cc4F)ncnc3cc2s1 [Compound 15a] strictly below 60%?
OUTPUT: not satisfied

INPUT: Is remaining activity at 1 µM of COC(=N)c1nc2ccc3c(=O)n(Cc4ccccc4)cnc3c2s1 [Compound 6d] strictly below 60%?
OUTPUT: not satisfied

INPUT: Lab note: confirm whether the reported remaining activity at 1 µM for this molecule is below 60%, equality not counting. molecule: COC(=N)c1nc2c(ccc3c(=O)n(Cc4ccccc4)cnc32)s1 [Compound 6c]
OUTPUT: satisfied

INPUT: Does the reported remaining activity at 1 µM of COC(=N)c1nc2ccc3ncnc(Nc4ccc(OC)cc4F)c3c2s1 [Compound II, reference compound] stay below 60%?
OUTPUT: satisfied

INPUT: Regarding COC(=N)c1nc2cc3ncn(Cc4ccccc4)c(=O)c3cc2s1 [Compound 6b] , kindly confirm whether its remaining activity at 1 µM is beneath 60%.
OUTPUT: not satisfied

---

assay: In vitro cytotoxic assay, Caco-2; assay type: cell-based; details: human, Caco-2 cells (colon cancer cell line); also: 0.1-25 µM tested
Mark each entry Yes if its IC50 at 48 h sits below 3 µM, and No for all others.

# example entries with known answers
{"molecule": "N#Cc1nc2cc3c(=O)n(Cc4ccccc4)cnc3cc2s1 [Compound 5a]", "class_label": "No"}
{"molecule": "COC(=N)c1nc2ccc3c(=O)n(Cc4ccccc4)cnc3c2s1 [Compound 6d]", "class_label": "No"}
{"molecule": "COC(=N)c1nc2cc3c(=O)n(Cc4ccccc4)cnc3cc2s1 [Compound 6a]", "class_label": "No"}

INPUT: Does the reported IC50 at 48 h of N#Cc1nc2ccc3c(=O)n(Cc4ccccc4)cnc3c2s1 [Compound 5d] stay below 3 µM?
OUTPUT: No

INPUT: # TODO verify IC50 at 48 h < 3 µM strictly for this molecule: COC(=N)c1nc2ccc3ncn(Cc4ccccc4)c(=O)c3c2s1 [Compound I, reference compound]
OUTPUT: No

INPUT: Lab note: confirm whether the reported IC50 at 48 h for this molecule is below 3 µM, equality not counting. molecule: COC(=N)c1nc2c(ccc3c(=O)n(Cc4ccccc4)cnc32)s1 [Compound 6c]
OUTPUT: No

INPUT: Determine whether this molecule shows IC50 at 48 h lower than 3 µM (ties excluded): N#Cc1nc2c(ccc3c(=O)n(Cc4ccccc4)cnc32)s1 [Compound 5c]
OUTPUT: No

INPUT: # strict comparison: is reported IC50 at 48 h < 3 µM? input = CC(=O)O[C@H]1C(=O)[C@@]2(C)[C@H]([C@H](OC(=O)c3ccccc3)[C@]3(O)C[C@H](OC(=O)[C@H](O)[C@@H](NC(=O)c4ccccc4)c4ccccc4)C(C)=C1C3(C)C)[C@]1(OC(C)=O)CO[C@@H]1C[C@@H]2O [Taxol, reference compound]
OUTPUT: Yes

INPUT: For COc1cccc2c1C(=O)c1c(O)c3c(c(O)c1C2=O)C[C@@](O)(C(=O)CO)C[C@@H]3O[C@H]1C[C@H](N)[C@H](O)[C@H](C)O1 [Doxo, Doxorubicin, reference compound] , is the recorded IC50 at 48 h below the cut-off of 3 µM?
OUTPUT: Yes

INPUT: Please state whether IC50 at 48 h is below 3 µM for COC(=N)c1nc2cc3ncn(Cc4ccccc4)c(=O)c3cc2s1 [Compound 6b]
OUTPUT: Yes

INPUT: Below 3 µM on IC50 at 48 h? Entry N#Cc1nc2cc3ncn(Cc4ccccc4)c(=O)c3cc2s1 [Compound 5b]
OUTPUT: Yes

---

experiment: In vitro cytotoxic assay, HCT-116; type: cell-based; settings: human, HCT-116 cells (colon cancer cell line)
value_type: IC50 at 48 h (µM)
// return numeric value only (unit: µM, not printed)

{"compound": "COC(=N)c1nc2c(ccc3c(=O)n(Cc4ccccc4)cnc32)s1", "unit_abbreviation": "µM", "IC50 at 48 h": 3}
{"compound": "COC(=N)c1nc2ccc3ncn(Cc4ccccc4)c(=O)c3c2s1 [Compound I, reference compound]", "unit_abbreviation": "µM", "IC50 at 48 h": 18}
{"compound": "COC(=N)c1nc2cc3c(=O)n(Cc4ccccc4)cnc3cc2s1", "unit_abbreviation": "µM", "IC50 at 48 h": 20}
{"compound": "COC(=N)c1nc2ccc3ncnc(Nc4ccc(OC)cc4F)c3c2s1 [Compound II, reference compound]", "unit_abbreviation": "µM", "IC50 at 48 h": 4}

Proceed to the following item.
// `N#Cc1nc2cc3ncn(Cc4ccccc4)c(=O)c3cc2s1` : IC50 at 48 h value = 2
